# Measured Target: hemoglobin (Homo sapiens, UniProt P68871+P69905)
# Sequence (P69905 2-142): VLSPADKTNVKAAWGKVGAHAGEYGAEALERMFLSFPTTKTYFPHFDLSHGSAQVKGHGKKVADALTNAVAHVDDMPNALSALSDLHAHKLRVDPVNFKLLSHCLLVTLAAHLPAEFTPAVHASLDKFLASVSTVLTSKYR
# Sequence (P68871 2-147): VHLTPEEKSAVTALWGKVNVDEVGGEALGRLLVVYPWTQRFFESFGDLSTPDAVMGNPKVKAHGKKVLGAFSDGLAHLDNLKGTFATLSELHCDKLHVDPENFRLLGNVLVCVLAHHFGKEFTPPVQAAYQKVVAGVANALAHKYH
# Test: Stability of hemoglobin in samples preserved at 37° C. in preservation solution containing no haptoglobin, Hb measured by latex agglutination method (Examples 8, 9 and Table 10)
# Condition Set: No feces; 62 h at 37° C.; no phenylboronic acid, sugar 100 mmol/L
Quantity: Recovery ratio with respect to Hb after 0 days (%)

- Molecule: "OC[C@H]1O[C@@](CO)(O[C@H]2O[C@H](CO)[C@@H](O)[C@H](O)[C@H]2O)[C@@H](O)[C@@H]1O [Sucrose, sucrose]"
  Unit Info: "%"
  Assay Value: 81
- Molecule: "O=C(CO)[C@@H](O)[C@H](O)[C@H](O)CO [Fructose, fructose]"
  Unit Info: "%"
  Assay Value: 81
- Molecule: "OC[C@H]1O[C@H](O[C@H]2O[C@H](CO)[C@@H](O)[C@H](O)[C@H]2O)[C@H](O)[C@@H](O)[C@@H]1O [Trehalose, trehalose]"
  Unit Info: "%"
  Assay Value: 78
- Molecule: "OC[C@@H](O)[C@@H](O)[C@H](O)[C@H](O)CO [Mannitol, mannitol]"
  Unit Info: "%"
  Assay Value: 84
- Molecule: "OC[C@@H](O)[C@@H](O)[C@H](O)[C@@H](O)CO [Sorbitol, sorbitol]"
  Unit Info: "%"
  Assay Value: 79

###

Overview of reported Recovery ratio with respect to Hb concentration after 0 days across a group of compounds:
# Tested on: hemoglobin-haptoglobin complex
# Test: Stability of hemoglobin (as hemoglobin-haptoglobin complex) in samples preserved at 37° C. in preservation solution containing 1 unit/L haptoglobin, Hb measured by latex agglutination method (Examples 1 to 7)
# Design: species or system human
# Condition Set: No feces; sugar 50 mmol/L + phenylboronic acid 15 mmol/L; 37° C., 14 days
Quantity: Recovery ratio with respect to Hb concentration after 0 days (%)

- Structure Smiles String: "OC[C@H]1O[C@@](CO)(O[C@H]2O[C@H](CO)[C@@H](O)[C@H](O)[C@H]2O)[C@@H](O)[C@@H]1O"
  Unit Info: "%"
  Assay Value: 91
- Structure Smiles String: "OC[C@@H](O)[C@@H](O)[C@H](O)[C@H](O)CO"
  Unit Info: "%"
  Assay Value: 94
- Structure Smiles String: "O=C(CO)[C@@H](O)[C@H](O)[C@H](O)CO"
  Unit Info: "%"
  Assay Value: 91
- Structure Smiles String: "OC[C@H]1O[C@H](O[C@H]2O[C@H](CO)[C@@H](O)[C@H](O)[C@H]2O)[C@H](O)[C@@H](O)[C@@H]1O"
  Unit Info: "%"
  Assay Value: 95
- Structure Smiles String: "OC[C@@H](O)[C@@H](O)[C@H](O)[C@@H](O)CO"
  Unit Info: "%"
  Assay Value: 89

###

Overview of reported Recovery ratio with respect to Hb concentration after 0 days across a group of compounds:
# Tested on: hemoglobin-haptoglobin complex
# Test: Stability of hemoglobin (as hemoglobin-haptoglobin complex) in samples preserved at 37° C. in preservation solution containing 1 unit/L haptoglobin, Hb measured by latex agglutination method (Examples 1 to 7)
# Parameters: species or system human
# Condition Set: No feces; sugar 100 mmol/L, no phenylboronic acid; 37° C., 21 days
Quantity: Recovery ratio with respect to Hb concentration after 0 days (%)

- Compound: "OC[C@H]1O[C@@](CO)(O[C@H]2O[C@H](CO)[C@@H](O)[C@H](O)[C@H]2O)[C@@H](O)[C@@H]1O [Sucrose, sucrose]"
  Unit Info: "%"
  Assay Value: 91
- Compound: "OC[C@@H](O)[C@@H](O)[C@H](O)[C@@H](O)CO [Sorbitol, sorbitol]"
  Unit Info: "%"
  Assay Value: 93
- Compound: "O=C(CO)[C@@H](O)[C@H](O)[C@H](O)CO [Fructose, fructose]"
  Unit Info: "%"
  Assay Value: 71
- Compound: "OC[C@H]1O[C@H](O[C@H]2O[C@H](CO)[C@@H](O)[C@H](O)[C@H]2O)[C@H](O)[C@@H](O)[C@@H]1O [Trehalose, trehalose]"
  Unit Info: "%"
  Assay Value: 91

###

# Measured Target: hemoglobin (Homo sapiens, UniProt P68871+P69905)
# Test: Stability of hemoglobin in samples preserved at 37° C. in preservation solution containing no haptoglobin, Hb measured by latex agglutination method (Examples 8, 9 and Table 10)
# Condition Set: Feces 1; 62 h at 37° C.; no phenylboronic acid, sugar 100 mmol/L
Quantity: Recovery ratio with respect to Hb after 0 days (%)

- Molecule: "OC[C@@H](O)[C@@H](O)[C@H](O)[C@@H](O)CO [Sorbitol, sorbitol]"
  Measured Target: "hemoglobin (Homo sapiens, UniProt P68871+P69905)"
  Assay Value: 0
- Molecule: "OC[C@H]1O[C@@](CO)(O[C@H]2O[C@H](CO)[C@@H](O)[C@H](O)[C@H]2O)[C@@H](O)[C@@H]1O [Sucrose, sucrose]"
  Measured Target: "hemoglobin (Homo sapiens, UniProt P68871+P69905)"
  Assay Value: 4
- Molecule: "O=C(CO)[C@@H](O)[C@H](O)[C@H](O)CO [Fructose, fructose]"
  Measured Target: "hemoglobin (Homo sapiens, UniProt P68871+P69905)"
  Assay Value: 0
- Molecule: "OC[C@@H](O)[C@@H](O)[C@H](O)[C@H](O)CO [Mannitol, mannitol]"
  Measured Target: "hemoglobin (Homo sapiens, UniProt P68871+P69905)"
  Assay Value: 0
- Molecule: "OC[C@H]1O[C@H](O[C@H]2O[C@H](CO)[C@@H](O)[C@H](O)[C@H]2O)[C@H](O)[C@@H](O)[C@@H]1O [Trehalose, trehalose]"
  Measured Target: "hemoglobin (Homo sapiens, UniProt P68871+P69905)"
  Assay Value: 3

###

# Measured Target: hemoglobin (Homo sapiens, UniProt P68871+P69905)
# Test: Stability of hemoglobin in samples preserved at 37° C. in preservation solution containing no haptoglobin, Hb measured by latex agglutination method (Examples 8, 9 and Table 10)
# Condition Set: Feces 1; 38 h at 37° C.; no phenylboronic acid, sugar 100 mmol/L
Overview of reported Hb concentration across a group of molecules:

- Molecule: "OC[C@@H](O)[C@@H](O)[C@H](O)[C@H](O)CO [Mannitol, mannitol]"
  Hb concentration, µg/L: 29
- Molecule: "OC[C@H]1O[C@@](CO)(O[C@H]2O[C@H](CO)[C@@H](O)[C@H](O)[C@H]2O)[C@@H](O)[C@@H]1O [Sucrose, sucrose]"
  Hb concentration, µg/L: 45
- Molecule: "O=C(CO)[C@@H](O)[C@H](O)[C@H](O)CO [Fructose, fructose]"
  Hb concentration, µg/L: 35
- Molecule: "OC[C@@H](O)[C@@H](O)[C@H](O)[C@@H](O)CO [Sorbitol, sorbitol]"
  Hb concentration, µg/L: 39
- Molecule: "OC[C@H]1O[C@H](O[C@H]2O[C@H](CO)[C@@H](O)[C@H](O)[C@H]2O)[C@H](O)[C@@H](O)[C@@H]1O [Trehalose, trehalose]"
  Hb concentration, µg/L: 41

###

# System: hemoglobin-haptoglobin complex
# Test: Stability of hemoglobin (as hemoglobin-haptoglobin complex) in samples preserved at 37° C. in preservation solution containing 1 unit/L haptoglobin, Hb measured by latex agglutination method (Examples 1 to 7)
# Design: species or system human
# Condition Set: No feces; arylboronic acid 15 mmol/L; 37° C., 7 days
Overview of reported Hb concentration across a group of compounds:

- Compound: "O=C(O)c1ccc(B(O)O)cc1 [4C-PBA, 4-carboxyphenylboronic acid]"
  Hb concentration / µg/L: 275
- Compound: "O=C(O)c1ccccc1B(O)O [2C-PBA, 2-carboxyphenylboronic acid]"
  Hb concentration / µg/L: 272
- Compound: "O=C(O)c1cccc(B(O)O)c1 [3C-PBA, 3-carboxyphenylboronic acid]"
  Hb concentration / µg/L: 281
- Compound: "OB(O)c1cccc(O)c1 [3H-PBA, 3-hydroxyphenylboronic acid]"
  Hb concentration / µg/L: 294

###

# Test system: hemoglobin-haptoglobin complex
# Test: Stability of hemoglobin (as hemoglobin-haptoglobin complex) in samples preserved at 37° C. in preservation solution containing 1 unit/L haptoglobin, Hb measured by latex agglutination method (Examples 1 to 7)
# Design: species or system human
# Condition Set: Feces 1; sugar 100 mmol/L + phenylboronic acid 15 mmol/L; 37° C., 7 days
# Description: Preservation solutions were prepared with the addition of 40 mmol/L HEPES (pH 6.8), 0.1% BSA, 0.1% NaN3, 1 unit/L haptoglobin, and 0 to 100 mmol/L phenylboronic acid. Samples obtained by adding hemoglobin-added fecal specimens to the preservation solutions so that the fecal concentration would be 0.5% were preserved at 37° C. for 0, 7, 14, and 21 days. […] The hemoglobin (Hb) concentrations (μg/L) in the preserved samples were measured by the latex agglutination method. […]
Overview of reported Recovery ratio with respect to Hb concentration after 0 days across a group of compounds:
Quantity: Recovery ratio with respect to Hb concentration after 0 days (%)

- Structure Smiles String: "OC[C@H]1O[C@H](O[C@H]2O[C@H](CO)[C@@H](O)[C@H](O)[C@H]2O)[C@H](O)[C@@H](O)[C@@H]1O"
  Assay Value: 86
- Structure Smiles String: "OC[C@@H](O)[C@@H](O)[C@H](O)[C@@H](O)CO"
  Assay Value: 102
- Structure Smiles String: "O=C(CO)[C@@H](O)[C@H](O)[C@H](O)CO"
  Assay Value: 96
- Structure Smiles String: "OC[C@H]1O[C@@](CO)(O[C@H]2O[C@H](CO)[C@@H](O)[C@H](O)[C@H]2O)[C@@H](O)[C@@H]1O"
  Assay Value: 95
- Structure Smiles String: "OC[C@@H](O)[C@@H](O)[C@H](O)[C@H](O)CO"
  Assay Value: 99
